Assay: Solubility of decitabine in different non-aqueous media
Format: physicochemical
Conditions: DMSO, organic solvent or mixture
metric-name: solubility

(Q) Reported solubility for `Nc1ncn([C@H]2C[C@H](O)[C@@H](CO)O2)c(=O)n1` : what is it?
(A) ~46 mg/mL
